- TESTED_ON: Hypoxia-inducible factor 1-alpha (Homo sapiens, UniProt Q16665)
- Sequence (Q16665 whole entry, looked up): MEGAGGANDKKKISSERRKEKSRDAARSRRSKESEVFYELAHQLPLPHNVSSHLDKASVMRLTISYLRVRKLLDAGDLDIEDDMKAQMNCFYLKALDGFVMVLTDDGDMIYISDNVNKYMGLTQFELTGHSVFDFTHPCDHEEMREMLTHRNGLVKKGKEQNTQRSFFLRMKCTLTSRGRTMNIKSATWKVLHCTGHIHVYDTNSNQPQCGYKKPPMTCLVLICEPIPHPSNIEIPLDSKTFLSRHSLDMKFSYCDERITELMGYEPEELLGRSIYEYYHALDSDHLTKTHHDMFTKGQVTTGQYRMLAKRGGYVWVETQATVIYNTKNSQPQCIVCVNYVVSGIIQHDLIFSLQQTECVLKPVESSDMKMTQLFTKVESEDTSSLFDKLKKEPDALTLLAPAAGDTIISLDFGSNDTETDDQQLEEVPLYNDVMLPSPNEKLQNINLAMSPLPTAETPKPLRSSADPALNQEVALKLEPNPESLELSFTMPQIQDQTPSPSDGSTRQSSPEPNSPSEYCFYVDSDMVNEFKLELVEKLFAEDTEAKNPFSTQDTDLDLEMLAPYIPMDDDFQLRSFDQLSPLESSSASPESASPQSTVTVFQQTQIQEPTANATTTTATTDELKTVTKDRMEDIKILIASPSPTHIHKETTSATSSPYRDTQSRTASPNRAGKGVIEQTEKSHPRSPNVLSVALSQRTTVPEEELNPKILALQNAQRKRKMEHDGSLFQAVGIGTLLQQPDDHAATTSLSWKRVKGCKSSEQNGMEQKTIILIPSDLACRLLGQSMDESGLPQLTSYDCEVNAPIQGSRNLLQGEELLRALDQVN
- MEASUREMENT_NOTES: Inhibition of hypoxia-induced HIF1alpha transcriptional activity in human HCT116 cells assessed as compound concentration causing inhibition of transcriptional activity measured after 18 hrs by hypoxia response element-driven dual luciferase reporter gene assay relative to hypoxia control
- Assay type: cell-based
- STATED_CONDITIONS: HCT-116

>  <CHEM_SMILES>
Cn1c(C[C@H](N)C(=O)O)cnc1S[C@H]1[C@H]2C(=O)C=C3S[C@H]4C[C@]31C1=C(N4)C(=O)c3[nH]cc4c3C1=[N+]2CC4

>  <Concentration causing inhibition / µM>
0.5

$$$$
>  <CHEM_SMILES>
O=C1C=C(SSC2=CC(=O)C(Br)=C[C@]23CCNC2=C3C3=NCCc4c[nH]c(c43)C2=O)[C@]2(C=C1Br)CCNC1=C2C2=NCCc3c[nH]c(c32)C1=O

>  <Concentration causing inhibition / µM>
0.1

$$$$
>  <CHEM_SMILES>
O=C1C2=C3C4=[N+](CCc5c[nH]c1c54)[C@@H]1C(=O)C=C4S[C@@H](C[C@@]43[C@H]1O)N2

>  <Concentration causing inhibition / µM>
0.1

$$$$
